test: A CellTox Green Cytotoxicity Assay to monitor cytotoxicity in HepG2 cells - 24 hour (AID 1224878); settings: CellTox Green fluorescence; series mostly up to 76.8 µM; further: nearly all actives have a fitted effect of over 45% in size
Inconclusive results are not listed. Activity calls are given as the source filed them. The call rests on the fitted dose curve; in most records, active means well fitted activation curve with a large enough effect in the repeat runs; inconclusive means weak or mixed curves; inactive means flat fitted curve, though single readings scatter.
quantity: outcome

{"columns": ["compound", "outcome"],
 "data": [
  ["CCCCCCO", "inactive"],
  ["CN(C)c1ccc(Cc2ccc(N(C)C)cc2)cc1", "inactive"],
  ["CC(C)CCCCCCCOC(=O)CCCCC(=O)OCCCCCCCC(C)C", "inactive"],
  ["OC1C(O)C(O)C(O)C(O)C1O (stereo unspecified)", "inactive"],
  ["O=c1[nH]cnc2[nH]ncc12", "inactive"],
  ["O=C(O)CCCCCCCCC(=O)O", "inactive"],
  ["CC(C)OP(=O)(CP(=O)(OC(C)C)OC(C)C)OC(C)C", "inactive"],
  ["CCCCCCCCCCN", "inactive"],
  ["NC(=S)NNC(N)=S", "inactive"],
  ["c1ccc(Oc2ccccc2)cc1", "inactive"]
]}

Batch request: outcome for each of the following compounds.
1. C=CC(=O)OCCC(=O)O
2. Nc1nc(N)nc(-c2ccccc2)n1
3. OCc1cccc(Oc2ccccc2)c1
4. CCCCCCCCCCCC(=O)OC
5. C[C@]12CCC(=O)C=C1CC[C@@H]1[C@@H]2[C@@H](O)C[C@@]2(C)[C@H]1CC[C@]2(O)C(=O)CO
6. CCNc1ccccc1
7. CC(C)OC(=O)COc1ccc(Cl)cc1Cl

Given back:
1. inactive
2. inactive
3. inactive
4. inactive
5. inactive
6. inactive
7. inactive

Batch request: outcome for each of the following compounds.
1. O=C(O)c1ccc(C(=O)O)c(C(=O)O)c1
2. CC(C)(Oc1ccc(CCNC(=O)c2ccc(Cl)cc2)cc1)C(=O)O

Given back:
["inactive", "inactive"]

Batch request: outcome for each of the following compounds.
1. CCNc1cccc(C)c1
2. CC(C)=CCl
3. CCCCCCCCCCCCCCCC(=O)OC(C)C
4. COc1ccc(C)cc1N
5. CC(C)CC(=O)CC(C)CC(C)C (stereo unspecified)
6. CC(O)CC(C)(C)O (stereo unspecified)
7. CCCCCCCO

Given back:
inactive
inactive
inactive
inactive
inactive
inactive
inactive
